# Ki per entry
molecular target: D2-like dopamine receptors (Rattus norvegicus); construct: Striatal tissue from the brains of male Charles River CD rats; from tissue; host or cells: rat striatum (male Charles River CD rats), crude membrane pellet; assay: inhibition of tritiated (S)-sulpiride binding to D2-like dopamine receptors, rat striatal tissue; set-up: species or system male Charles River CD rats; settings: 4° C., 40 minutes, pH 7.7
Sequence (P61169 whole entry): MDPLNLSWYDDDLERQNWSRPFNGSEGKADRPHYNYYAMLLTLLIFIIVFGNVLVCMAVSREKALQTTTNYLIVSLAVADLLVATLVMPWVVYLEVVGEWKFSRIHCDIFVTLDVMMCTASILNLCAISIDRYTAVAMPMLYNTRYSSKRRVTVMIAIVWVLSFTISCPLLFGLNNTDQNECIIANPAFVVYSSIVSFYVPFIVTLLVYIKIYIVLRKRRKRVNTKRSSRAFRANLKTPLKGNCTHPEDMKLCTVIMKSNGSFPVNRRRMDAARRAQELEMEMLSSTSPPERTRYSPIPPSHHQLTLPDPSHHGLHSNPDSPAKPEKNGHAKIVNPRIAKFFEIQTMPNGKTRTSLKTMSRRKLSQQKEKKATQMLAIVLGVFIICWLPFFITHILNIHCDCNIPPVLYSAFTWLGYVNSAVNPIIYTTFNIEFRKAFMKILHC
# value in nM; strip the unit string

O=S(=O)(NCC1CCN(C[C@H]2COc3ccc(Cl)cc3O2)CC1)c1cccc(C(F)(F)F)c1 = 352
O=S(=O)(NCC1CCN(C[C@H]2COc3ccc(Cl)cc3O2)CC1)c1ccccn1 [Example 1, hydrate] = 29.4
COc1ccc(S(=O)(=O)NCC2CCN(C[C@H]3COc4ccc(Cl)cc4O3)CC2)cc1OC = 40.2

Shifting focus to the compound that follows.
Measured Ki of O=[N+]([O-])c1cccc(S(=O)(=O)NCC2CCN(C[C@H]3COc4ccc(Cl)cc4O3)CC2)c1 : 119

----------
target: 5-HT1A (Rattus norvegicus); construct: Hippocampal tissue from the brains of male Charles River CD rats; from tissue; host or cells: rat hippocampus (male Charles River CD rats), crude membrane pellet; experiment: inhibition of tritiated ligand ([3H]8-OH-DPAT) binding to 5-HT1A receptors, rat hippocampal tissue; design: species or system male Charles River CD rats; details: 25° C., 30 minutes, pH 7.7
Sequence (P19327 whole entry): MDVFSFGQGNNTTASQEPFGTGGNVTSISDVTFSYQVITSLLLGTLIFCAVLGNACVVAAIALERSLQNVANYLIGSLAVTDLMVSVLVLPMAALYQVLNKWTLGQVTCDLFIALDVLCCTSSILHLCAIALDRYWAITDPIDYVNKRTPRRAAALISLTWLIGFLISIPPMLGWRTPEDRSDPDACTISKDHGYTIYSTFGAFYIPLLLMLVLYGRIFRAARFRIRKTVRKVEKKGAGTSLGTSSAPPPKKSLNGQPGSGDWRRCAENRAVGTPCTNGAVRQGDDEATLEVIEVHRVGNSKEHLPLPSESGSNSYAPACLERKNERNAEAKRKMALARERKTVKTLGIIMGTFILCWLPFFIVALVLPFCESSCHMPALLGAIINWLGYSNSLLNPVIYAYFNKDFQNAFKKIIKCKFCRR
The label yes (1) is reserved for Ki strictly under 30 nM; no (0) covers values equal to or above it.

O=S(=O)(NCC1CCN(C[C@H]2COc3ccc(Cl)cc3O2)CC1)c1ccc(F)cc1F = no (0)
O=S(=O)(NCC1CCN(C[C@H]2COc3ccc(C(F)(F)F)cc3O2)CC1)c1cccc(Cl)c1Cl = yes (1)
COc1ccc(S(=O)(=O)NCC2CCN(C[C@H]3COc4ccc(Cl)cc4O3)CC2)cc1 = no (0)

*Q* # check: Ki < 30 nM for O=S(=O)(NCC1CCN(C[C@H]2COc3ccc(Cl)cc3O2)CC1)c1ccc(F)cc1
*A* no (0)

*Q* # check: Ki < 30 nM for O=S(=O)(c1ccccn1)N1CCC(CNC[C@H]2COc3ccc(Cl)cc3O2)CC1 [Example 2, hydrate]
*A* yes (1)

*Q* # check: Ki < 30 nM for CC(=O)Nc1ccc(S(=O)(=O)NCC2CCN(C[C@H]3COc4ccc(Cl)cc4O3)CC2)cc1
*A* no (0)

*Q* # check: Ki < 30 nM for O=S(=O)(NCC1CCN(C[C@H]2COc3ccc(Cl)cc3O2)CC1)c1cccnc1 [Example 3, hydrate]
*A* no (0)

----------
# Ki per entry
biological target: D2-like dopamine receptors (Rattus norvegicus); construct: Striatal tissue from the brains of male Charles River CD rats; from tissue; host or cells: rat striatum (male Charles River CD rats), crude membrane pellet; assay: inhibition of tritiated (S)-sulpiride binding to D2-like dopamine receptors, rat striatal tissue; design: species or system male Charles River CD rats; conditions: 4° C., 40 minutes, pH 7.7
# value in nM; strip the unit string

Cc1ccc(F)cc1S(=O)(=O)NCC1CCN(C[C@H]2COc3ccc(Cl)cc3O2)CC1 = 328
O=S(=O)(NCC1CCN(C[C@H]2COc3ccc(C(F)(F)F)cc3O2)CC1)c1cccc(Cl)c1Cl = 111

Measured Ki of O=S(=O)(NCC1CCN(C[C@H]2COc3ccc(Cl)cc3O2)CC1)c1ccc(F)cc1F : 37.8

Measured Ki of O=[N+]([O-])c1ccc(S(=O)(=O)NCC2CCN(C[C@H]3COc4ccc(Cl)cc4O3)CC2)c([N+](=O)[O-])c1 : 212

Data credit: patent US6136825A
